test: Pharmacokinetic profile of MAK683 in sequential blood samples, Phase I/II study; type: in vivo, human; conditions: human, blood; patients, oral, fasted, 10-800 mg QD or 60-450 mg BID; read-out: median Tmax
property-name: Tmax

What measured Tmax goes with "Cc1ncccc1-c1cnc(NCc2c(F)ccc3c2CCO3)n2cnnc12" ?
~1 h

====

assay: Pharmacokinetic profile of MAK683 in sequential blood samples, Phase I/II study; assay type: in vivo, human; settings: human, blood, oral; across cohorts; unchanged after multiple doses; read-out: Apparent terminal half-life (geometric mean)
property-name: half-life

I would be grateful if you could share the reported half-life for Cc1ncccc1-c1cnc(NCc2c(F)ccc3c2CCO3)n2cnnc12 [MAK683] .
2.5 to 5.2 h
